Target or system: Gastrin/cholecystokinin type B receptor (Homo sapiens, UniProt P32239); note: assay procedure not described here
Sequence (P32239 whole entry): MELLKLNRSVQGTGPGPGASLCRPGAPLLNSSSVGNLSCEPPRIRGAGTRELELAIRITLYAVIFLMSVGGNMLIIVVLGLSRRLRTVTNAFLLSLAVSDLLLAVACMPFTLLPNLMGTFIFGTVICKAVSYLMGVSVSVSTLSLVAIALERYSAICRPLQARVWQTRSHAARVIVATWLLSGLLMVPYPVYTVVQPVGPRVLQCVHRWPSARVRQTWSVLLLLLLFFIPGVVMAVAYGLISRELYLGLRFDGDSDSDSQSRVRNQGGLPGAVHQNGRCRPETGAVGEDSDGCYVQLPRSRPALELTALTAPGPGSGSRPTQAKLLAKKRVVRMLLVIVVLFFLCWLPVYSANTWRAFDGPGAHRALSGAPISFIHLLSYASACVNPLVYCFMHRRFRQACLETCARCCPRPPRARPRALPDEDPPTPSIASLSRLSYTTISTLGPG
Item-by-item account of AC50

| Compound | Target or system | AC50 |
| --- | --- | --- |
| CNC(C)CCC=C(C)C (configuration not stated) [ISOMETHEPTENE] | Gastrin/cholecystokinin type B receptor (Homo sapiens, UniProt P32239) | > 30 µM |
| CC(C)(C)C(=O)Oc1ccc(S(=O)(=O)Nc2ccccc2C(=O)NCC(=O)O)cc1 | Gastrin/cholecystokinin type B receptor (Homo sapiens, UniProt P32239) | > 30 µM |
| CCC1(CC)C(=O)NCC(C)C1=O (configuration not stated) [METHYPRYLON] | Gastrin/cholecystokinin type B receptor (Homo sapiens, UniProt P32239) | > 30 µM |
| Clc1ccc2nsnc2c1NC1=NCCN1 [TIZANIDINE] | Gastrin/cholecystokinin type B receptor (Homo sapiens, UniProt P32239) | > 30 µM |
| COC(=O)C1=C(C)NC(C)=C(C(=O)OC2CCCN(Cc3ccccc3)C2)C1c1cccc([N+](=O)[O-])c1 (configuration not stated) [BENIDIPINE] | Gastrin/cholecystokinin type B receptor (Homo sapiens, UniProt P32239) | > 30 µM |
| CC[C@H]1OC(=O)[C@H](C)[C@@H](O[C@H]2C[C@@](C)(OC)[C@@H](O)[C@H](C)O2)[C@H](C)[C@@H](O[C@@H]2O[C@H](C)C[C@H](N(C)C)[C@H]2O)[C@](C)(O)C[C@@H](C)CN(C)[C@H](C)[C@@H](O)[C@]1(C)O [AZITHROMYCIN] | Gastrin/cholecystokinin type B receptor (Homo sapiens, UniProt P32239) | > 30 µM |
| Nc1nc(NC2CC2)c2ncn([C@H]3C=C[C@@H](CO)C3)c2n1 [ABACAVIR] | Gastrin/cholecystokinin type B receptor (Homo sapiens, UniProt P32239) | > 30 µM |

---

In what follows, each item is paired with its AC50 for Glucocorticoid receptor (Homo sapiens, UniProt P04150).
Metric: AC50

| Compound | Result |
| --- | --- |
| Clc1ccc2nsnc2c1NC1=NCCN1 | > 30 µM |
| CC(C)(C)NCC(O)COc1cccc2c1CCC(=O)N2 (stereo unspecified) | > 10 µM |
| CCCSc1ccc2nc(NC(=O)OC)[nH]c2c1 | > 10 µM |
| CN1C(=O)CCS(=O)(=O)C1c1ccc(Cl)cc1 (stereo unspecified) | > 10 µM |
| OC(CNCC(O)C1CCc2cc(F)ccc2O1)C1CCc2cc(F)ccc2O1 (stereo unspecified) | > 30 µM |
| CN1CCC(=C2c3ccccc3CCc3sccc32)CC1 | > 30 µM |
| Cc1c(C(=O)NN2CCCCC2)nn(-c2ccc(Cl)cc2Cl)c1-c1ccc(Cl)cc1 | > 30 µM |
| C=CCC1(C(C)CC)C(=O)NC(=O)NC1=O (stereo unspecified) | > 10 µM |
| CS(=O)(=O)c1ccc(C2=C(c3ccccc3)C(=O)OC2)cc1 | > 30 µM |
| COc1ccc(CCNCC(O)COc2cccc(C)c2)cc1OC (stereo unspecified) | > 10 µM |
| Cc1cccc(Nc2ccccc2C(=O)O)c1C | > 10 µM |
| C=CCN1CCCC1CNC(=O)c1cc(S(N)(=O)=O)cc(OC)c1OC (stereo unspecified) [VERALIPRIDE] | > 30 µM |
| COc1ccccc1N1CCN(CC(O)COc2cccc3ccccc23)CC1 (stereo unspecified) | 8.9 µM |
| CC(C)(C)c1cc(C(C)(C)C)c(NC(=O)c2c[nH]c3ccccc3c2=O)cc1O | > 30 µM |
| CC(C)C[C@H]1C(=O)N2CCC[C@H]2[C@]2(O)O[C@](NC(=O)[C@@H]3C=C4c5cccc6[nH]c(Br)c(c56)C[C@H]4N(C)C3)(C(C)C)C(=O)N12 | > 30 µM |
| COC(=O)C1=C(C)NC(C)=C(C(=O)OC2CCCN(Cc3ccccc3)C2)C1c1cccc([N+](=O)[O-])c1 (stereo unspecified) | > 30 µM |
| Cc1nc([N+](=O)[O-])cn1-c1ccc([N+](=O)[O-])cc1 | > 30 µM |
| Cc1ccc(-c2cc(C(F)(F)F)nn2-c2ccc(S(N)(=O)=O)cc2)cc1 | > 30 µM |
| CCCCc1ncc(/C=C(\Cc2cccs2)C(=O)O)n1Cc1ccc(C(=O)O)cc1 | > 30 µM |
| CCCCCCOc1ccccc1C(N)=O [EXALAMIDE] | > 30 µM |
| O=C(O)C1=C(CSc2nnnn2CS(=O)(=O)O)CS[C@@H]2[C@H](NC(=O)[C@H](O)c3ccccc3)C(=O)N12 | > 30 µM |
| O=C(O)C[C@H](O)C[C@H](O)/C=C/c1c(C2CC2)nc2ccccc2c1-c1ccc(F)cc1 | > 10 µM |
| Cc1nnc2n1-c1ccc(Cl)cc1C(c1ccccc1Cl)=NC2 | > 30 µM |
| CC(C)=CCC/C(C)=C/C=C/C(C)=C/C=C/C(C)=C/C=C/C=C(C)/C=C/C=C(C)/C=C/C=C(\C)CCC=C(C)C | > 30 µM |
| Nc1nc(/C(=C/CC(=O)O)C(=O)N[C@@H]2C(=O)N3C(C(=O)O)=CCS[C@H]23)cs1 | > 30 µM |
| CC1(C)O[C@@H]2C[C@H]3[C@@H]4CCC5=CC(=O)C=C[C@]5(C)[C@H]4[C@@H](O)C[C@]3(C)[C@]2(C(=O)CO)O1 [DESONIDE] | 0.016 µM |
| C=CCN1C[C@H](C(=O)N(CCCN(C)C)C(=O)NCC)C[C@@H]2c3cccc4[nH]cc(c34)C[C@H]21 | > 10 µM |
| CCCCN1C[C@H](O)[C@@H](O)[C@H](O)[C@H]1CO | > 30 µM |
| CC(C[N+](C)(C)C)OC(N)=O (stereo unspecified) | > 10 µM |
| O=[N+]([O-])O[C@@H]1CO[C@H]2[C@@H]1OC[C@@H]2O [ISOSORBIDE MONONITRATE] | > 30 µM |
| CCCN(CCC)C(=O)C(CCC(=O)O)NC(=O)c1ccccc1 (stereo unspecified) [PROGLUMIDE] | > 30 µM |
| O=P1(NCCCl)OCCCN1CCCl (stereo unspecified) [IFOSFAMIDE] | > 30 µM |
| CCC1(CC)C(=O)NCC(C)C1=O (stereo unspecified) | > 30 µM |
| CCOc1ccccc1OCC1CNCCO1 (stereo unspecified) | > 30 µM |
| CN1C(=O)C(O)N=C(c2ccccc2Cl)c2cc(Cl)ccc21 (stereo unspecified) | > 30 µM |
| Brc1c(NC2=NCCN2)ccc2nccnc12 | > 30 µM |

---

Target or system: Histamine H3 receptor (Homo sapiens); note: assay procedure not described here
Sequence (Q9Y5N1 whole entry): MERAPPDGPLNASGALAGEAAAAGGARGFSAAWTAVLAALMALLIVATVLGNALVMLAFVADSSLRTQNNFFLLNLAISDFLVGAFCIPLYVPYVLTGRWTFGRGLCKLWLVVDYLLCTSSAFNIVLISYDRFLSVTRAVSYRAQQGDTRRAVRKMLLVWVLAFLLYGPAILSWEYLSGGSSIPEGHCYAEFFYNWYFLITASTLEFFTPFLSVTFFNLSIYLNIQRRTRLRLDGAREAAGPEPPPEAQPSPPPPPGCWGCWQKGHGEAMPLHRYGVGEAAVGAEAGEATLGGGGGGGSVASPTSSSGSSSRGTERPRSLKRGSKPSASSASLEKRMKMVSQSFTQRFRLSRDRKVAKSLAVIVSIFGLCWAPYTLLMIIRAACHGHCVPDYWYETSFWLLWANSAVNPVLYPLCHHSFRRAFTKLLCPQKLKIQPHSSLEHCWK
Item-by-item account of AC50

| Compound | Target or system | AC50 |
| --- | --- | --- |
| NCC(=O)CCC(=O)O [AMINOLEVULINIC ACID] | Histamine H3 receptor (Homo sapiens) | > 30 µM |
| OC(CNCC(O)C1CCc2cc(F)ccc2O1)C1CCc2cc(F)ccc2O1 (configuration not stated) [NEBIVOLOL] | Histamine H3 receptor (Homo sapiens) | 23 µM |
| c1ccc([C@H]2CN3CCSC3=N2)cc1 [LEVAMISOLE] | Histamine H3 receptor (Homo sapiens) | > 30 µM |
| CCN1CCN(C(=O)N[C@@H](C(=O)N[C@@H]2C(=O)N3C(C(=O)O)=C(CSc4nnnn4C)CS[C@H]23)c2ccc(O)cc2)C(=O)C1=O [CEFOPERAZONE] | Histamine H3 receptor (Homo sapiens) | > 30 µM |
| C1CCC(C(CC2CCCCN2)C2CCCCC2)CC1 (configuration not stated) [PERHEXILINE] | Histamine H3 receptor (Homo sapiens) | > 30 µM |
| CC(CC(c1ccccc1)c1ccccc1)NC(C)(C)C (configuration not stated) [TERODILINE] | Histamine H3 receptor (Homo sapiens) | > 30 µM |
| C=CCc1ccccc1OCC(O)CNC(C)C (configuration not stated) [ALPRENOLOL] | Histamine H3 receptor (Homo sapiens) | > 30 µM |
| CN1C(=O)OC(C)(C)C1=O [TRIMETHADIONE] | Histamine H3 receptor (Homo sapiens) | > 10 µM |
| CCC(C)n1ncn(-c2ccc(N3CCN(c4ccc(OCC5COC(Cn6cncn6)(c6ccc(Cl)cc6Cl)O5)cc4)CC3)cc2)c1=O (configuration not stated) [ITRACONAZOLE] | Histamine H3 receptor (Homo sapiens) | > 30 µM |
| CCC(CC)(CC(=O)Nc1cccc(/C=C/c2nc(C3CCC3)cs2)c1)C(=O)O | Histamine H3 receptor (Homo sapiens) | > 30 µM |
| CC(C)C(=O)c1c(C(C)C)nn2ccccc12 [IBUDILAST] | Histamine H3 receptor (Homo sapiens) | > 30 µM |
| CCN(CC)C(=O)N[C@H]1C[C@@H]2c3cccc4[nH]cc(c34)C[C@H]2N(C)C1 [TERGURIDE] | Histamine H3 receptor (Homo sapiens) | > 30 µM |
| CCOC(=O)OC(C)OC1=C(C(=O)Nc2ccccn2)N(C)S(=O)(=O)c2ccccc21 (configuration not stated) [AMPIROXICAM] | Histamine H3 receptor (Homo sapiens) | > 30 µM |
| CO[C@H]1C[C@@H]2CC[C@@H](C)[C@@](O)(O2)C(=O)C(=O)N2CCCC[C@H]2C(=O)O[C@H]([C@H](C)C[C@@H]2CC[C@@H](O)[C@H](OC)C2)CC(=O)[C@H](C)/C=C(\C)[C@@H](O)[C@@H](OC)C(=O)[C@H](C)C[C@H](C)/C=C/C=C/C=C/1C [SIROLIMUS] | Histamine H3 receptor (Homo sapiens) | > 10 µM |
| O=P1(NCCCl)OCCCN1CCCl (configuration not stated) [IFOSFAMIDE] | Histamine H3 receptor (Homo sapiens) | > 30 µM |
| CCOC(=O)[C@H](CCc1ccccc1)N[C@@H](C)C(=O)N1C(=O)N(C)C[C@H]1C(=O)O | Histamine H3 receptor (Homo sapiens) | > 30 µM |
| COc1ccccc1OCC(O)CN1CCN(CC(=O)Nc2c(C)cccc2C)CC1 (configuration not stated) [RANOLAZINE] | Histamine H3 receptor (Homo sapiens) | > 30 µM |
